Numbers sourced from patent US20160264674A1.

Biological target: T1, FLAG-tagged human APRIL (human, UniProt O75888 105-250, limits assumed)
T1 construct: also called FLAG-tagged APRIL; FLAG-APRIL; not shown: FLAG tag
T1 sequence (looked up): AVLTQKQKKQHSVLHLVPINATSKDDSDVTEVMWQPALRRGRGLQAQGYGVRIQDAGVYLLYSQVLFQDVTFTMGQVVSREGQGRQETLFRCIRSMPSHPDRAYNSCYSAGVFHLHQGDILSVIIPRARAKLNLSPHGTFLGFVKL
Assay: FLAG-APRIL ELISA after 10 min at 70 °C, antibody at 3.16 µg/ml
parameter measured: % residual binding after heat treatment (room temperature = 100%)

1) VH14_1G.VL15 (antibody, human IgG4 S228P, kappa, V domains shown, VH14_1 with R67K and V68A; Humanized IgG4 (S241P, Kabat) with human kappa; also called 14_1G.15; 14_1 G.15) VH: QVQLVQSGAEVKKPGASVKVSCKASGYTFTSYVMHWVRQAPGQGLEWMGYINPYNDAPKYNEKFKGKATMTSDTSASTAYMELSSLRSDDTAVYYCARGLGYALYYAMDYWGQGTTVTVSS VL: DIVMTQSPSTLSASVGDRVTITCKASQNVGNNVAWYQQKPGKAPKLLISSASNRDSGVPSRFSGSGSGTEFTLTISSLQPDDFATYFCQQYNIYPFTFGQGTKLEIKR : 78.2
2) VH14.VL15 (antibody, human IgG4 S228P, kappa, V domains shown, Humanized IgG4 (S241P, Kabat) with human kappa, from HEK293T) VH: QVQLVQSGAEVKKPGASVKVSCKASGYTFTSYVMHWVRQAPGQGLEWMGYINPYNDAPKYNEKFKGRVTMTRDTSASTAYMELSSLRSDDTAVYYCARGLGYALYYAMDYWGQGTTVTVSS VL: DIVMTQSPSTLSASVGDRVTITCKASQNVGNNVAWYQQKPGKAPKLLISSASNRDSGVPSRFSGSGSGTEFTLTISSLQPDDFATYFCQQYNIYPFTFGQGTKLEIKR : 58.6
3) VH14_1E.VL15 (antibody, human IgG4, V domains shown, VH14_1 with Q1E; Rest is human IgG4 (S241P, Kabat) and human kappa; also called 14_1E.15) VH: EVQLVQSGAEVKKPGASVKVSCKASGYTFTSYVMHWVRQAPGQGLEWMGYINPYNDAPKYNEKFKGRVTMTSDTSASTAYMELSSLRSDDTAVYYCARGLGYALYYAMDYWGQGTTVTVSS VL: DIVMTQSPSTLSASVGDRVTITCKASQNVGNNVAWYQQKPGKAPKLLISSASNRDSGVPSRFSGSGSGTEFTLTISSLQPDDFATYFCQQYNIYPFTFGQGTKLEIK : 78.8
